Tested on: DU-145
test: Cytotoxicity against human DU145 cells assessed as cell viability after 24 hrs by MTT assay
Type: functional, cell-based
measurement.parameters: DU-145, 24 h
observed.property: IC50

[[record]]
mol = "C[C@@H]1C(=O)[C@@]23CC[C@@H]4[C@@](C)(CO)CCC[C@@]4(C)C2=CC[C@]1(O)C3"
data_value = "> 50 µM"

[[record]]
mol = "C=C1[C@@H](O)[C@@]23CC[C@@H]4C(C)(C)CCC[C@@]4(C)[C@@H]2CC[C@@H]1[C@H]3O"
data_value = "> 50 µM"

[[record]]
mol = "C=C1C(=O)[C@@]23CC[C@H]4[C@@](C)(CCC[C@@]4(C)C(=O)O)[C@@H]2CC[C@]1(O)C3"
data_value = "48.5 µM"

[[record]]
mol = "C=C1[C@@H]2CC[C@@H]3[C@@](CC[C@@H]4C(C)(C)CC[C@H](O)[C@]43C)(C2)[C@@H]1O"
data_value = "> 50 µM"

[[record]]
mol = "C=C1[C@@H]2CC[C@H]3[C@]4(C)CCCC(C)(C)[C@H]4C[C@@H](O)[C@]3(C2)[C@H]1O"
data_value = "> 50 µM"


----------
Test system: LoVo
test: Cytotoxicity against human LoVo cells assessed as cell viability after 24 hrs by MTT assay
Assay type: functional, cell-based
observed.property: IC50

[[record]]
molecule = "C=C1[C@@H]2CC(=O)[C@H]3[C@]4(C)CCCC(C)(C)[C@H]4CC[C@]3(C2)[C@@H]1O"
observed_property = "IC50"
data_value = "> 50 µM"

[[record]]
molecule = "C[C@H]1C(=O)[C@@]23C[C@H](O)[C@@H]4[C@@](C)(CO)CCC[C@@]4(C)C2=CC[C@]1(O)C3"
observed_property = "IC50"
data_value = "> 50 µM"

[[record]]
molecule = "C[C@H]1C(=O)[C@@]23CC[C@@H]4[C@](C)(CO)CCC[C@@]4(C)C2=CC[C@]1(O)C3"
observed_property = "IC50"
data_value = "> 50 µM"

[[record]]
molecule = "C=C1[C@@H]2CC[C@@H]3[C@@](CC[C@@H]4C(C)(C)CC[C@H](O)[C@]43C)(C2)[C@H]1O"
observed_property = "IC50"
data_value = "> 50 µM"

[[record]]
molecule = "C=C1C(=O)[C@H]2C[C@]1(O)CC1=C2[C@]2(C)CCCC(C)(C)[C@H]2CC1"
observed_property = "IC50"
data_value = "2.3 µM"

[[record]]
molecule = "C[C@@H]1C(=O)[C@H]2C[C@]1(O)CC1=C2[C@]2(C)CCCC(C)(C)[C@H]2CC1"
observed_property = "IC50"
data_value = "> 50 µM"

[[record]]
molecule = "C=C1[C@@H]2CC[C@]3(O)[C@@](CC[C@@H]4C(C)(C)CCC[C@]43C)(C2)[C@@H]1O"
observed_property = "IC50"
data_value = "> 50 µM"

[[record]]
molecule = "C[C@H]1C(=O)[C@@]23CC[C@@H]4[C@@](C)(CO)CCC[C@@]4(C)C2=CC[C@]1(O)C3"
observed_property = "IC50"
data_value = "> 50 µM"

[[record]]
molecule = "C=C1[C@@H]2CC(=O)[C@H]3[C@]4(C)CCCC(C)(C)[C@H]4[C@@H](O)C[C@]3(C2)[C@@H]1O"
observed_property = "IC50"
data_value = "> 50 µM"

[[record]]
molecule = "C[C@H]1C(=O)[C@@]23CC[C@@H]4C(C)(C)CCC[C@@]4(C)C2=CC[C@]1(O)C3"
observed_property = "IC50"
data_value = "> 50 µM"

[[record]]
molecule = "C=C1[C@@H]2CC[C@H]3[C@]4(C)CCCC(C)(C)[C@H]4C[C@@H](O)[C@]3(C2)[C@H]1O"
observed_property = "IC50"
data_value = "> 50 µM"

[[record]]
molecule = "C=C1[C@@H](O)[C@@]23CC[C@@H]4C(C)(C)CCC[C@@]4(C)[C@@H]2CC[C@@H]1[C@H]3O"
observed_property = "IC50"
data_value = "> 50 µM"

[[record]]
molecule = "C=C1C[C@@]23CC[C@H]4[C@@](C)(CCC[C@]4(C)C(=O)O)[C@@H]2CC[C@@H]1C3"
observed_property = "IC50"
data_value = "> 50 µM"

[[record]]
molecule = "C=C1C(=O)[C@@]23CC[C@@H]4[C@@](C)(CO)CCC[C@@]4(C)C2=CC[C@@H]1C3"
observed_property = "IC50"
data_value = "11.2 µM"

[[record]]
molecule = "C=C1C(O)[C@@]23CC[C@H]4[C@@](C)(CCC[C@@]4(C)C(=O)OCCN4CCN(C)CC4)[C@@H]2CC[C@]1(O)C3 (stereo partly specified)"
observed_property = "IC50"
data_value = "> 50 µM"

[[record]]
molecule = "C[C@H]1C(=O)[C@@]23CC[C@@H]4[C@@](C)(C=O)CCC[C@@]4(C)C2=CC[C@]1(O)C3"
observed_property = "IC50"
data_value = "> 50 µM"


----------
System: NCI-H1299
test: Cytotoxicity against human NCI-H1299 cells assessed as cell viability after 24 hrs by MTT assay
Type: functional, cell-based
measurement.parameters: NCI-H1299, 24 h
pIC50: −log10 of the molar value.
Parameter: pIC50. Scope: all listed entries.
observed.property: pIC50

[[record]]
molecule = "C=C1C(O)[C@@]23CC[C@H]4[C@@](C)(CCC[C@@]4(C)C(=O)O)[C@@H]2CC[C@]1(O)C3 (some centres undefined)"
data_value = "< 4.30"

[[record]]
molecule = "C=C1[C@@H]2CC(=O)[C@H]3[C@]4(C)CCCC(C)(C)[C@H]4C[C@@H](O)[C@]3(C2)[C@@H]1O"
data_value = "< 4.30"

[[record]]
molecule = "C=C1[C@@H]2CC[C@H]3[C@]4(C)CCCC(C)(C)[C@H]4C[C@@H](O)[C@]3(C2)[C@@H]1O"
data_value = "< 4.30"

[[record]]
molecule = "C=C1C(=O)[C@@]23CC[C@@H]4C(C)(C)CCC[C@@]4(C)C2=CC[C@]1(O)C3"
data_value = 5.62

[[record]]
molecule = "C=C1[C@@H]2CC(=O)[C@H]3[C@]4(C)CCCC(C)(C)[C@H]4[C@@H](O)C[C@]3(C2)[C@@H]1O"
data_value = "< 4.30"

[[record]]
molecule = "C=C1[C@@H]2CC[C@@H]3[C@@](CC[C@@H]4C(C)(C)CC[C@H](O)[C@]43C)(C2)[C@@H]1O"
data_value = "< 4.30"

[[record]]
molecule = "C=C1C(=O)[C@H]2C[C@]1(O)CC1=C2[C@]2(C)CCCC(C)(C)[C@H]2CC1"
data_value = 5.59

[[record]]
molecule = "C[C@@H]1C(=O)[C@@]23CC[C@@H]4[C@@](C)(CO)CCC[C@@]4(C)C2=CC[C@]1(O)C3"
data_value = "< 4.30"

[[record]]
molecule = "C[C@H]1C(=O)[C@@]23CC[C@@H]4[C@](C)(CO)CCC[C@@]4(C)C2=CC[C@]1(O)C3"
data_value = "< 4.30"

[[record]]
molecule = "C=C1C(=O)[C@H]2C[C@@H]1CC1=C2[C@]2(C)CCC[C@](C)(CO)[C@H]2CC1"
data_value = "< 4.30"

[[record]]
molecule = "C[C@@H]1C(=O)[C@@]23CC[C@@H]4C(C)(C)[C@H](O)CC[C@@]4(C)[C@@H]2[C@@H](O)C[C@@H]1C3"
data_value = "< 4.30"

[[record]]
molecule = "C[C@@H]1C(=O)[C@H]2C[C@]1(O)CC1=C2[C@]2(C)CCC[C@@](C)(CO)[C@H]2CC1"
data_value = "< 4.30"

[[record]]
molecule = "C=C1[C@@H]2CC[C@H]3[C@]4(C)CCC[C@](C)(C(=O)O)[C@H]4CC[C@]3(C2)[C@@H]1OC(C)=O"
data_value = "< 4.30"

[[record]]
molecule = "C=C1C(=O)[C@@]23CC[C@H]4[C@@](C)(CCC[C@@]4(C)C(=O)O)[C@@H]2CC[C@]1(O)C3"
data_value = 4.48

[[record]]
molecule = "C=C1[C@@H]2C[C@H](O)[C@H]3[C@]4(C)CCCC(C)(C)[C@H]4CC[C@]3(C2)[C@@H]1O"
data_value = "< 4.30"

[[record]]
molecule = "C=C1C(=O)[C@@]23CC[C@H]4[C@@](C)(CCC[C@@]4(C)C(=O)OC)[C@@H]2CC[C@]1(O)C3"
data_value = 5.04

[[record]]
molecule = "C[C@H]1C(=O)[C@@]23C[C@H](O)[C@@H]4[C@@](C)(CO)CCC[C@@]4(C)C2=CC[C@]1(O)C3"
data_value = "< 4.30"

[[record]]
molecule = "C[C@@H]1C(=O)[C@H]2C[C@]1(O)CC1=C2[C@]2(C)CCC[C@](C)(C=O)[C@H]2CC1"
data_value = "< 4.30"

[[record]]
molecule = "C=C1[C@@H]2CC(=O)[C@H]3[C@]4(C)CCCC(C)(C)[C@H]4[C@@H](O)[C@@H](O)[C@]3(C2)[C@@H]1O"
data_value = "< 4.30"

